molecular target: DENND5A; test: reporter assay of Huesken 2005; conditions: siRNA
Oligonucleotides are written 5' to 3', each unit as a sugar letter and its base; * is a phosphorothioate linkage, no mark a phosphodiester; rarer units and linkages stand in square brackets, end groups in braces. Plain capitals give the bases only. d = 2'-deoxy (DNA); r = 2'-OH (RNA)
// label = true (1) if normalised inhibition (eCFP-eYFP dual reporter) is not less than 70%, otherwise false (0)

{"columns": ["Substance", "Label class"],
 "data": [
  ["sense rArGrArGrGrArArUrGrGrGrArArCrArUrUrGrCdTdT / antisense rGrCrArArUrGrUrUrCrCrCrArUrUrCrCrUrCrUdTdG", "false (0)"],
  ["sense rArUrUrGrCrCrArGrCrCrUrUrUrGrUrGrArUrCdTdT / antisense rGrArUrCrArCrArArArGrGrCrUrGrGrCrArArUdCdA", "false (0)"],
  ["sense rGrArUrCrCrUrArGrUrUrGrGrGrGrArGrCrUrGdTdT / antisense rCrArGrCrUrCrCrCrCrArArCrUrArGrGrArUrCdCdG", "false (0)"],
  ["sense rArGrArCrCrCrArGrGrCrUrGrArUrCrCrCrArGdTdT / antisense rCrUrGrGrGrArUrCrArGrCrCrUrGrGrGrUrCrUdTdG", "true (1)"],
  ["sense rUrUrCrCrUrUrGrArUrUrCrGrUrGrUrGrCrUrGdTdT / antisense rCrArGrCrArCrArCrGrArArUrCrArArGrGrArAdTdT", "false (0)"],
  ["sense rCrUrUrUrGrUrGrArUrCrUrCrCrUrGrGrArArAdTdT / antisense rUrUrUrCrCrArGrGrArGrArUrCrArCrArArArGdGdC", "false (0)"],
  ["sense rCrArGrCrGrCrUrUrCrArArCrUrCrCrUrArUrGdTdT / antisense rCrArUrArGrGrArGrUrUrGrArArGrCrGrCrUrGdCdA", "false (0)"],
  ["sense rArCrGrArGrCrUrGrUrCrGrGrCrArUrUrArUrGdTdT / antisense rCrArUrArArUrGrCrCrGrArCrArGrCrUrCrGrUdCdC", "false (0)"],
  ["sense rGrGrCrUrGrGrCrArUrUrCrArArGrArCrCrCrAdTdT / antisense rUrGrGrGrUrCrUrUrGrArArUrGrCrCrArGrCrCdCdT", "true (1)"],
  ["sense rUrCrUrUrGrArUrUrCrArGrArArCrGrUrArGrGdTdT / antisense rCrCrUrArCrGrUrUrCrUrGrArArUrCrArArGrAdAdG", "false (0)"]
]}

* * *

target: P2RX3; test: reporter assay of Huesken 2005; details: siRNA
Oligonucleotides are written 5' to 3', each unit as a sugar letter and its base; * is a phosphorothioate linkage, no mark a phosphodiester; rarer units and linkages stand in square brackets, end groups in braces. Plain capitals give the bases only. d = 2'-deoxy (DNA); r = 2'-OH (RNA)
Listing of entries alongside the reported normalised inhibition (eCFP-eYFP dual reporter).
Experimental readout: normalised inhibition (eCFP-eYFP dual reporter) (%)

{"columns": ["Substance", "Tested on", "Observed result"],
 "data": [
  ["sense rGrCrArCrCrUrCrGrGrUrCrUrUrUrGrUrCrArUdTdT / antisense rArUrGrArCrArArArGrArCrCrGrArGrGrUrGrCdCdC", "P2RX3", 85.9],
  ["sense rArCrArGrCrUrCrUrGrUrGrCrUrCrCrGrGrArCdTdT / antisense rGrUrCrCrGrGrArGrCrArCrArGrArGrCrUrGrUdAdG", "P2RX3", 59.2],
  ["sense rArCrGrCrCrArCrCrUrCrArGrGrGrCrArCrCrUdTdT / antisense rArGrGrUrGrCrCrCrUrGrArGrGrUrGrGrCrGrUdCdA", "P2RX3", 8.6],
  ["sense rGrGrCrCrUrUrUrArCrUrUrCrUrGrUrGrGrGrAdTdT / antisense rUrCrCrCrArCrArGrArArGrUrArArArGrGrCrCdGdC", "P2RX3", 80.2],
  ["sense rUrArGrGrGrUrGrGrGrUrUrUrUrCrUrUrGrCrAdTdT / antisense rUrGrCrArArGrArArArArCrCrCrArCrCrCrUrAdCdA", "P2RX3", 82.2],
  ["sense rCrGrCrCrArCrCrUrCrArGrGrGrCrArCrCrUrCdTdT / antisense rGrArGrGrUrGrCrCrCrUrGrArGrGrUrGrGrCrGdTdC", "P2RX3", 13]
]}
